molecular target: human von Willebrand factor (VWF) (human); assay: SPR
RECORDED_ENDPOINT: Kd (nM)

| SUBSTANCE | RECORDED_ENDPOINT | UNITS | OBSERVED_VALUE |
| --- | --- | --- | --- |
| recombinant factor VIII–Fc fusion protein (rFVIIIFc) (from UniProt P00451 1668-2351) | Kd | nM | 0.34 |
